Measured melting point by item

CCOc1ccc(-c2c(Cl)c(CN3C(=O)CCC3=O)nc3sc4c(c23)CCNC4)cc1 = 215 to 217 °C
NS(=O)(=O)c1csc2cc(O)cnc12 = 245 to 247 °C
COc1ccc(-c2[nH]nc3c2C(=O)c2c(NC(=O)CN4CCC(N(C)C)CC4)cccc2-3)cc1 = > 300 °C

Fill in: melting point of "O=c1c(-c2ccc(NS(=O)(=O)c3ccccc3)cc2)coc2cc(O)c(O)cc12" is ___
285 to 286 °C

Fill in: melting point of "NC(=O)c1cn2c(nc1=O)CCC2" is ___
277 to 278 °C

Fill in: melting point of "O=C(c1cc(=O)c2ccc(OCc3ccccc3)cc2[nH]1)N1CCC(Cc2ccccc2)CC1" is ___
228 °C

====

Measured endpoint: melting point

Here are 4 molecules together with their reported answers.
N#Cc1ccc(NC(=O)[C@H](CC(=O)O)NCc2ccccc2)cc1 = 178 °C
COc1cc(C)nc(NC(=O)NS(=O)(=O)c2csc3ccccc23)n1 = 180 to 181 °C
O=C(O)Cc1cc([N+](=O)[O-])ccc1Oc1ccc(F)cc1 = 129 to 130 °C
COc1ccc(NN=C(Sc2cccc(Cl)c2)C(C)=O)cc1 = 132 to 134 °C

API: the following record is the query input.
Fill in: melting point of "CNC(=O)NS(=O)(=O)c1ccccc1C=CC(F)(F)F" is ___
190 to 192 °C

====

Measured endpoint: melting point

CCCC(=NOCC)C1=C(O)CC(c2cc3ccccc3o2)CC1=O (stereo unspecified) = 70 °C
Cc1c([N+](=O)[O-])c([N+](=O)[O-])c(Cl)c2c1=NC(=O)C(=O)N=2 = 346 to 348 °C
CCCCCCC(=N)NC(=S)Nc1cccc(C(F)(F)F)c1 = 105 to 107 °C
Fc1cc(F)cc(-c2cccc3[nH]c4c(c23)CCN(Cc2ccccc2)CC4)c1 = 172 to 175 °C
Cc1cc(C(O)CN2CCC(O)(c3ccc4c(c3)COCC4)CC2)ccc1O (stereo unspecified) = 178 °C
NC(=O)N(O)Cc1cccs1 = 112 °C

Fill in: melting point of O=C1N(Cc2cc(=O)[nH]c(=O)[nH]2)c2ccccc2C12COc1cc3c(cc12)OCO3 (stereo unspecified) is ___
> 300 °C

Fill in: melting point of "CCCn1nc2c(N)nc3ccccc3c2c1CC1CCOCC1" is ___
218 to 220 °C

Fill in: melting point of O=C1CCC(N2Cc3c(OCc4cc(CN5CCOCC5)no4)cccc3C2=O)C(=O)N1 (stereo unspecified) is ___
228 to 230 °C

Fill in: melting point of "COC1CCN(S(=O)(=O)c2ccc(S(N)(=O)=O)cc2C(F)(F)F)CC1" is ___
136 to 137 °C

Fill in: melting point of "Cc1ccc(N(c2ccc(C)cc2)c2ccc(C=Cc3cc(O)cc(O)c3)cc2)cc1" is ___
161 °C

====

Measured melting point by item

CCC(=O)NC(C)(C)COc1cccc2nc(C)c(C(=O)O)c(N)c12 = 189 to 193 °C
C=CCc1c(C(=O)OCC)nc2ccccc2c1O = 146 to 147 °C
N#Cc1cc(-c2ccnc(Nc3cccc(C(F)(F)F)c3)n2)ccn1 = 164 to 166 °C

Fill in: melting point of "CCOC(=O)c1ccc(-c2nc(COc3ccc(CCl)cc3OCC)c(C)o2)s1" is ___
157 to 158 °C

Fill in: melting point of COc1cccc(-c2cccc3c2OC(COS(=O)(=O)c2ccc(C)cc2)C3)c1 (stereo unspecified) is ___
141 to 142 °C

Fill in: melting point of "Cn1ncc2c1-c1c(Cc3ccccc3)sc(C(=O)O)c1CC2" is ___
> 300 °C

====

Measured melting point by item

Here are 3 molecules together with their reported answers.
Cn1cc(C(=O)NCc2ccc(Cl)cc2)c(=O)c2cc(CN3CC=C(F)CC3)ccc21 = 221 to 223 °C
CN1C(=O)C(C)(Cc2ccccc2)N(C)C(=O)C1=Cc1cccnc1C#N (stereo not given) = 163 °C
O=Cc1cc(OCCl)c(O)cc1[N+](=O)[O-] = 160 to 161 °C

Fill in: melting point of "COc1ccc(C(=O)c2c(N)sc3c2CCN(Cc2ccccc2)C3)cc1OC" is ___
149 to 150 °C

Fill in: melting point of "O=C(O)c1nc2cc(Oc3cccc([N+](=O)[O-])c3)c([N+](=O)[O-])cc2[nH]c1=O" is ___
198 to 200 °C

Fill in: melting point of "CC1(C)OC(c2ccc(S(N)(=O)=O)cc2)=C(c2cccc(C(F)(F)F)c2)C1=O" is ___
129 to 130 °C

Fill in: melting point of "CCCn1nc(C(C)C)c(C(=O)O)c1Cc1ccc(-c2ccccc2S(=O)(=O)NC(=O)OCC(C)C)c(F)c1" is ___
77 to 82 °C

Fill in: melting point of "COc1ccccc1Oc1c(Cl)nc(-c2ccoc2)nc1NS(=O)(=O)c1ccc(C(C)(C)C)cc1" is ___
> 300 °C

Fill in: melting point of CC(OCc1cc2cc(Cl)ccc2n1S(=O)(=O)c1ccc2c(c1)OCCN2C)C(=O)O (stereo not given) is ___
68 °C

Fill in: melting point of "CCOC(=O)c1cn(-c2ccccn2)c2oc(CN3CCOCC3)cc2c1=O" is ___
192 to 195 °C

Fill in: melting point of "CCC(=O)NC(=O)C(CC)(OC(=O)CC)C(=O)NC(=O)CC" is ___
90 °C

Fill in: melting point of COc1ccc2c(c1)OC(c1ccc(Cl)cc1)CC2=O (stereo not given) is ___
97 to 99 °C

Fill in: melting point of "O=C(NCc1cocn1)c1cc(-n2cnn(Cc3ccc(F)cc3)c2=O)n[nH]1" is ___
267 to 268 °C

Fill in: melting point of "CCCCCCCCCCCCNC(N)=O" is ___
105 to 107 °C

Fill in: melting point of "CN(CCCCNC(=O)NCCSCc1csc(NC(=N)N)n1)CCOC(c1ccccc1)c1ccccc1" is ___
101 °C

Fill in: melting point of CC(C)(C)CC1NC(C(=O)NCC2CCC(O)CC2)C(c2cccc(Cl)c2F)C12C(=O)Nc1cc(Cl)ccc12 (stereo not given) is ___
192 °C

Fill in: melting point of "CC(=O)OCCn1c([N+](=O)[O-])cnc1C=O" is ___
203 to 205 °C

Fill in: melting point of "CCCc1c(Cc2ccccc2)ccc2c(=O)cc(CCC(=O)O)oc12" is ___
160 to 161 °C

Fill in: melting point of "N=C(NO)c1ccc(-c2ccc(-c3ccc(C(=N)NO)o3)o2)cc1" is ___
205 to 206 °C

Fill in: melting point of CCCCCCCCCCCCCCCCSCC(COS(C)(=O)=O)NC(=O)OC (stereo not given) is ___
82 to 83 °C

====

Measured endpoint: melting point

Fill in: melting point of "O=[N+]([O-])c1ccc(Sc2ccc(O)c(Cl)c2Cl)cc1" is ___
204 °C

Fill in: melting point of "COc1ccc(-n2nc(Sc3ccc(C)cc3C)c(C)c(C#N)c2=O)cc1" is ___
166 to 168 °C

Fill in: melting point of "O=C(O)c1cc(F)ccc1Nc1ccnc2c(C(F)(F)F)cccc12" is ___
262 to 268 °C

Fill in: melting point of "O=S1(=O)N=CN(C2CCCC2)c2cc(Cl)c(Cl)cc21" is ___
189 to 191 °C

Fill in: melting point of "COc1ccc(CCNC(=O)C(F)(F)F)cc1" is ___
74 to 77 °C

Fill in: melting point of "COc1ccc2sc(S(N)(=O)=O)cc2c1" is ___
125 to 127 °C

Fill in: melting point of COc1cc2cc(C(=O)N3CC(CCl)c4c3cc(N)c3ncccc43)[nH]c2c(OC)c1OC (stereo not drawn) is ___
225 to 227 °C

Fill in: melting point of "O=S(=O)(/C=C/c1ccccc1)CS(=O)(=O)/C=C/c1ccccc1" is ___
128 to 130 °C

====

Measured endpoint: melting point

Here are 3 compounds together with their reported answers.
Cc1cc(C)c2c(c1O)C(N1CCCC1)C1CCCCC21 (stereo not given) = 96 to 97 °C
ClCc1csc(-c2ccc(Cl)c(Cl)c2)n1 = 93 to 96 °C
N#Cc1nn(-c2c(Cl)cc(C(F)(F)F)cc2Cl)c(Br)c1O = 145 to 151 °C

Fill in: melting point of "Cc1nc(-c2ccccc2)cc(-c2ccc(C#N)o2)c1C(=O)NCCN1CCOCC1" is ___
141 to 143 °C

Fill in: melting point of "CCCOc1ccccc1-c1nc(OCC)cc(=O)[nH]1" is ___
95.5 to 97 °C

Fill in: melting point of NC(=O)CCC1CCC(=O)N1 (stereo not given) is ___
178 °C
